Data origin, for the record: patent US7585938B2

Run Description: Examination of solubility, visually and by microscopy
Assay type: physicochemical
Experimental Conditions: physiological saline, saline or isotonic; concentration 100 μg/ml
Observation Type: solubility

## Task Could you share which solubility value was measured for COC(=O)[C@H](CC(C)C)NC(=O)[C@H](CCSC)NC(=O)[C@@H](C[C@@H](O)[C@H](CC(C)C)NC(=O)OC(C)(C)C)C(C)C ?
## Result < 100 µg/mL

---

Run Description: Examination of solubility, visually and by microscopy
Type: physicochemical
Experimental Conditions: DMEM medium containing 10% fetal bovine serum, plasma or biological fluid; concentration 10 ng/ml
Observation Type: solubility

## Task Could you share which solubility value was measured for COC(=O)[C@H](CC(C)C)NC(=O)[C@H](CCSC)NC(=O)[C@@H](C[C@@H](O)[C@H](CC(C)C)NC(=O)OC(C)(C)C)C(C)C ?
## Result > 0.01 µg/mL
